target: HGFR (Homo sapiens, UniProt P08581); construct: purchased Upstate 14-526; experiment: HGFR continuous-coupled spectrophotometric assay; format: biochemical; settings: at 1 pM; Table 6, library procedure 41; read-out: % Inhibition (percent c-MET inhibition)
Sequence (P08581 974-1390 limits assumed): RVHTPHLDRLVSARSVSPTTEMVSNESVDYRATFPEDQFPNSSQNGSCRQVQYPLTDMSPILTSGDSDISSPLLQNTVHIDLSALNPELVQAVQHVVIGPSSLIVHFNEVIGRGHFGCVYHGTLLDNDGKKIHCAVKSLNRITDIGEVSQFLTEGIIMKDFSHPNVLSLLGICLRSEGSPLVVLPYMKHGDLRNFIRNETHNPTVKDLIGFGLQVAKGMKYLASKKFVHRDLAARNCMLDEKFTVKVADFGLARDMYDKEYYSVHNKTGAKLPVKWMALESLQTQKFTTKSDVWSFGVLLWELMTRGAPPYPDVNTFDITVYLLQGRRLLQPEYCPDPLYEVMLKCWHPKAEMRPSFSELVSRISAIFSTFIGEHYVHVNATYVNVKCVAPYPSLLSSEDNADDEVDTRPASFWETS
Tag: Yes if measured inhibition at 1 pM is not below 30%, No if it is.

Nc1ncc(C(=O)N2CCC(Cc3ccc(F)cc3)CC2)cc1OCc1c(Cl)cccc1Cl [Example L-302]    Yes
Nc1ncc(C(=O)NCCc2ccc(O)cc2)cc1OCc1c(Cl)cccc1Cl [Example L-219]    Yes
CC(C)(CO)CNC(=O)c1cnc(N)c(OCc2c(Cl)cccc2Cl)c1 [Example L-210]    Yes

Ask | Does Nc1ncc(C(=O)NCCC2CCC(=O)N2CCc2ccc(O)cc2)cc1OCc1c(Cl)cccc1Cl [Example L-314] have a reported inhibition at 1 pM of at least 30%?
Reply | No

Ask | Does Nc1ncc(C(=O)NCc2ccc(F)cc2)cc1OCc1c(Cl)cccc1Cl [Example L-220] have a reported inhibition at 1 pM of at least 30%?
Reply | Yes

###

# pIC50 listing for each entry below
biological target: Met kinase domain (GST fusion protein) (Homo sapiens, UniProt P08581); construct: Purified GST fusion protein containing the Met kinase domain; assay: Met transphosphorylation assay (ELISA, poly(glu-tyr) substrate); format: biochemical; conditions: read-out: Met IC50
Sequence (P08581 1078-1345 limits assumed): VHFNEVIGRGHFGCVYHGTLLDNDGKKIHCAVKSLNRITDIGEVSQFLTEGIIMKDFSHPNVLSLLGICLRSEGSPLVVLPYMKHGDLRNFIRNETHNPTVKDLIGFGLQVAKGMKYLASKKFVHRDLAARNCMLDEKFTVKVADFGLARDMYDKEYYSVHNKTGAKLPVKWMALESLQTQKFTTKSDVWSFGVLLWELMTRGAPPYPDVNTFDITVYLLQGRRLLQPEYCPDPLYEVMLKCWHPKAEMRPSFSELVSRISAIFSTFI
A value of pIC50 is the negative decimal logarithm of a concentration given in moles per litre.

Reference set, count: 8
CN(CC(O)CN1CCCC1)C(=O)c1ccc(-c2cnc(N)c(OCc3c(Cl)cccc3Cl)c2)cc1 (centres unmarked)    6.15
Nc1ncc(-c2ccc3[nH]c(C(=O)NCC(O)CN4CCCC4)cc3c2)cc1OCc1c(Cl)cccc1Cl (centres unmarked)    6.15
N#Cc1ccccc1COc1cc(-c2ccc(C(=O)N3CC[C@H](N)C3)cc2)cnc1N    5.69
CC(Oc1nc(-c2cccc(C(=O)NCCCN3CCCC3)c2)cnc1N)c1c(F)ccc(F)c1Cl (centres unmarked)    6.46
Nc1ncc(-c2cccc(C(=O)NCCN3CCCC3)c2)nc1OCc1c(F)ccc(F)c1Cl    5.80
CC(=O)N[C@H]1CCN(Cc2c[nH]c3ccc(-c4cnc(N)c(OCc5c(F)ccc(F)c5Cl)c4)cc23)C1    6.02
Nc1ncc(-c2ccc(O)cc2)cc1OCc1c(F)cccc1F    5.42
CC(Oc1nc(-c2ccc(NC(=O)N3CCN(C)CC3)cc2)cnc1N)c1c(F)ccc(F)c1Cl (centres unmarked)    7.00

Ask | Quick check: pIC50 of CC(Oc1cc(-c2cccc(C(=O)N3CCC(N4CCCC4)CC3)c2)cnc1N)c1c(Cl)ccc(F)c1Cl (centres unmarked) ?
Reply | 7.15

Ask | Quick check: pIC50 of "Nc1ncc(-c2cccc(C(=O)N3CCC[C@@H]3CN3CCCC3)c2)cc1OCc1c(Cl)cccc1Cl" ?
Reply | 5.60

Ask | Quick check: pIC50 of "Nc1ncc(-c2ccc(C(=O)N3CCC(N4CCCC4)CC3)cc2)nc1OCc1c(Cl)cccc1Cl" ?
Reply | 6.25

Ask | Quick check: pIC50 of CC(Oc1nc(-c2cccc(C(=O)N3CC[C@@H](N)C3)c2)cnc1N)c1c(Cl)ccc(F)c1Cl (some centres unmarked) ?
Reply | 6.96

Ask | Quick check: pIC50 of "CN(C)[C@H]1CCN(C(=O)c2ccc(-c3cnc(N)c(OCc4ccccc4Cl)c3)cc2)C1" ?
Reply | 4.90

Ask | Quick check: pIC50 of "Nc1ncc(-c2ccc(OCc3ccccc3)c(F)c2)cc1OCc1c(Cl)cccc1Cl" ?
Reply | 4.87

Ask | Quick check: pIC50 of "CC(=O)N1CCN(CCNC(=O)c2cccc(-c3cnc(N)c(OCc4c(F)ccc(F)c4Cl)n3)c2)CC1" ?
Reply | 5.56

Ask | Quick check: pIC50 of "Nc1ncc(-c2ccc(C(=O)N3CCC[C@@H]3CN3CCCC3)cc2)nc1OCc1c(F)ccc(F)c1Cl" ?
Reply | 6.82

Ask | Quick check: pIC50 of CC(Oc1nc(-c2ccc(OCCN3CCOCC3)cc2)cnc1N)c1c(Cl)ccc(F)c1Cl (centres unmarked) ?
Reply | 6.52

Ask | Quick check: pIC50 of "Nc1ncc(-c2cccc(OCCN3CCOCC3)c2)nc1OCc1c(Cl)cccc1Cl" ?
Reply | 6.13

Ask | Quick check: pIC50 of CC(Oc1nc(-c2ccc(C(=O)N3CCN(C)CC3)cc2)cnc1N)c1c(Cl)cccc1Cl (centres unmarked) ?
Reply | 6.82

###

molecular target: HGFR (Homo sapiens); construct: purchased Upstate 14-526; assay: HGFR continuous-coupled spectrophotometric assay; assay type: biochemical; conditions: at 1 pM; Table 6, library procedure 41; read-out: % Inhibition (percent c-MET inhibition)
measured.quantity: inhibition at 1 pM (%)
Quick reminder: number only, in %, skip the unit.

Nc1ncc(C(=O)NCc2noc(C(=O)N3CCC(CO)CC3)n2)cc1OCc1c(Cl)cccc1Cl    26
Cc1nc(CCNC(=O)c2cnc(N)c(OCc3c(Cl)cccc3Cl)c2)cs1    23

Ask | Quick check: inhibition at 1 pM of "COc1ccc(CNC(=O)c2cnc(N)c(OCc3c(Cl)cccc3Cl)c2)c(OC)c1" ?
Reply | 59

Ask | Quick check: inhibition at 1 pM of Nc1ncc(C(=O)NC(CO)Cc2ccc(Cl)cc2)cc1OCc1c(Cl)cccc1Cl (centres unmarked) ?
Reply | 27

Ask | Quick check: inhibition at 1 pM of "Cc1ccn2cc(CNC(=O)c3cnc(N)c(OCc4c(Cl)cccc4Cl)c3)nc2n1" ?
Reply | 45

Ask | Quick check: inhibition at 1 pM of "COCCN1CCN(C(=O)c2cnc(N)c(OCc3c(Cl)cccc3Cl)c2)CC1" ?
Reply | 27

Ask | Quick check: inhibition at 1 pM of "CC(C)OCCNC(=O)c1cnc(N)c(OCc2c(Cl)cccc2Cl)c1" ?
Reply | 46

Ask | Quick check: inhibition at 1 pM of "CN1CCN(CCCNC(=O)c2cnc(N)c(OCc3c(Cl)cccc3Cl)c2)CC1" ?
Reply | 24

###

molecular target: Met kinase domain (GST fusion protein) (Homo sapiens); construct: Purified GST fusion protein containing the Met kinase domain; assay: Met transphosphorylation assay (ELISA, poly(glu-tyr) substrate); type: biochemical; conditions: read-out: Met IC50
pIC50: −log10 of the molar value.
Tag: met if measured pIC50 is not below 6, not met if it is.

Some solved cases for reference:
Nc1ncc(-c2ccccc2OC(F)(F)F)cc1OCc1c(Cl)cccc1Cl    not met
CCN(CC)CCS(=O)(=O)Nc1ccc(-c2cnc(N)c(OC(C)c3c(Cl)ccc(F)c3Cl)n2)cc1 (centres unmarked)    met
Nc1ncc(-c2ccc3[nH]c(C(=O)N4CCC[C@@H]4CN4CCCC4)cc3c2)cc1OCc1c(Cl)cccc1Cl    met
Nc1ncc(-c2ccccc2O)cc1OCc1c(Cl)cccc1Cl    not met

Ask | Does "Nc1ncc(-c2cccc(C(=O)NCCN3CCOCC3)c2)nc1OCc1c(F)ccc(F)c1Cl" have a reported pIC50 of at least 6?
Reply | not met

###

biological target: Met kinase domain (GST fusion protein) (Homo sapiens, UniProt P08581); construct: Purified GST fusion protein containing the Met kinase domain; test: Met transphosphorylation assay (ELISA, poly(glu-tyr) substrate); format: biochemical; details: plain numbers in column Met IC50 (μM) of Table 2; read-out: Met IC50;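 note: Cell-free ELISA with plate-bound poly(Glu:Tyr 4:1) phosphorylated by GST-fused Met kinase domain plus ATP and Mn2+, phosphotyrosine detected by anti-phosphotyrosine antibody with HRP and ABTS read-out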
measured.quantity: log10 of IC50 (log10 of the value in µM)
The figures below represent log10 of IC50, where IC50 is stated in µM.

Reference set, count: 4
CC(Oc1cc(-c2cccc(C(=O)NCCCN3CCCC3)c2)cnc1N)c1c(Cl)cccc1Cl (stereo not drawn) [Example I-392]    -1.14
CC(Oc1cc(-c2ccnc(C(=O)N3CCN(C)CC3)c2)cnc1N)c1c(Cl)ccc(F)c1Cl (stereo not drawn) [Example I-515]    -1.41
CC(Oc1cc(C#CCNC(=O)CN2CCC(O)CC2)cnc1N)c1c(Cl)ccc(F)c1Cl (stereo not drawn) [Example I-428]    -1.92
CC(Oc1cc(-c2cccc(C(=O)NC3CCN(C)CC3)c2)cnc1N)c1c(Cl)cccc1Cl (stereo not drawn) [Example I-394]    -1.21

Ask | Quick check: log10 of IC50 of CC(Oc1cc(-c2ccc(NC(=O)N3CCC[C@@H]3CN3CCCC3)cc2)cnc1N)c1c(F)ccc(F)c1Cl (stereo partly drawn) [Example I-385] ?
Reply | -0.89

Ask | Quick check: log10 of IC50 of CC(Oc1cc(C#CCNC(=O)N2CCC(N3CCCC3)CC2)cnc1N)c1c(Cl)ccc(F)c1Cl (stereo not drawn) [Example I-414] ?
Reply | -1.24

Ask | Quick check: log10 of IC50 of CC(Oc1cc(-c2cccc(C(=O)N3CC[C@H](N)C3)c2)cnc1N)c1c(Cl)cccc1Cl (stereo partly drawn) [Example I-397] ?
Reply | -1.26

Ask | Quick check: log10 of IC50 of Nc1ncc(-c2cccnc2)cc1OCc1c(Cl)cccc1Cl [Example I-506] ?
Reply | 0.43

Ask | Quick check: log10 of IC50 of CC(Oc1cc(-c2ccc(N3CCCS3(=O)=O)cc2)cnc1N)c1c(F)ccc(F)c1Cl (stereo not drawn) [Example I-365] ?
Reply | -0.85

Ask | Quick check: log10 of IC50 of CC(Oc1cc(-c2cccc(C(=O)N3CCC[C@H]3CN3CCCC3)c2)cnc1N)c1c(Cl)cccc1Cl (stereo partly drawn) [Example I-391] ?
Reply | -1.01

Ask | Quick check: log10 of IC50 of CCCOc1cnc(N)c(OC(C)c2c(F)ccc(F)c2Cl)c1 (stereo not drawn) [Example I-533] ?
Reply | -0.17

Ask | Quick check: log10 of IC50 of CC(Oc1cc(-c2ccncc2)cnc1N)c1c(F)ccc(F)c1Cl (stereo not drawn) [Example I-528] ?
Reply | -1.18
